- Test system: mTEFS fibroblasts autofluorescence, GFP-channel imaging, 3 days
- method: compound fluorescence in GFP channel, mTEFS cells – imaging, mTEFS fibroblasts, cherry-pick, artefact control for X-chromosome reactivation project, dose response (AID 743396)
- conditions: cells pretreated with 5-aza-dC
The source made the active and inactive calls.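 The calls were made as follows: active = fitted curve reaches a 40% rise in fluorescent cells at or below the top valid dose; inactive = opposite-direction effect, or the rest.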
Hello, when you answer, please use one of the following outcomes: active, inactive

> print(dat)
                                   molecule       cat
1  N#C/C(=C/c1ccc(N2CCCCC2)o1)C(=O)Nc1ccc2ccccc2c1    active
2   CCCN1C(=O)S/C(=C\c2ccc(N3CCOCC3)o2)C1=O  inactive
3     CN1/C(=C/C=C(C#N)C#N)C(C)(C)c2ccccc21    active
4  CCN(CC)C1=CC2=CC(=C(C#N)C#N)CCC2CC1 (stereo unspecified)  inactive
5  CN1CCc2c(sc(NC(=O)c3ccc(S(=O)(=O)N4CCc5ccccc54)cc3)c2C(N)=O)C1    active
6  C/C(CC(=O)Nc1ccc(C)c(Cl)c1)=N\NC(=O)Cc1ccccc1    active

From here, focus on the item given below.
Query: How did this test come out for Cc1nonc1NC(=O)CSc1nc2c(C)cccc2cc1C#N ?
Response: active

----------
- method: compound fluorescence in GFP channel, mTEFS cells – imaging, mTEFS fibroblasts, cherry-pick, artefact control for X-chromosome reactivation project, dose response (AID 743396)
- conditions: mTEFS fibroblasts autofluorescence, GFP-channel imaging, 3 days; at 19.5 µM (top of the series); cells pretreated with 5-aza-dC
Reported % fluorescent cells increase is given for each of the following compounds.
Quick note: give the figure in %, leave out the unit.

For orientation, consider the following solved cases.
> print(dat)
                           substance.smiles             property.measured  value.reported
1  CN(C)c1ccc(NC2=C(Cl)C(=O)c3ccccc3C2=O)cc1  % fluorescent cells increase          -0.006
2  O=C(Nc1ccc(F)cc1)N1CC(=O)N2[C@H](CO)[C@H](c3ccc(C#Cc4ccc(F)cc4)cc3)[C@@H]2C1  % fluorescent cells increase          -0.166
3  Cc1ccc(S(=O)(=O)N(C)C[C@H]2OCCCC[C@@H](C)Oc3ccc(NC(=O)Nc4c(C)noc4C)cc3C(=O)N([C@H](C)CO)C[C@@H]2C)cc1  % fluorescent cells increase           0.012
4  Cc1ccc(-c2nc3ccc(Br)cn3c2Cc2ccccc2C(F)(F)F)cc1  % fluorescent cells increase           0.042

Query: Looking for the measured % fluorescent cells increase of Cc1ccc(C(=O)Cn2cncn2)cc1 , can you help?
Response: -0.006

Query: Same again, this time with CC(C)n1c(NCc2cc(Cl)ccc2O)nc2ccccc21
Response: -0.007

Query: Same again, this time with CN1c2ccc(-c3ccc(C#N)cc3)cc2[C@@H]2[C@@H](CCN2C(=O)NC2CCCCC2)[C@H]1CO
Response: 0.092

Query: Same again, this time with COc1ccc(-c2noc(-c3cccs3)n2)cc1OC
Response: 0.073

Query: Same again, this time with CCCCC(=O)N(C)c1c(CC)nc2c(OCC(=O)c3ccc(F)cc3)cccn12
Response: 3.76

Query: Same again, this time with Cn1cc(C(=O)N/N=C/C(Br)=C/c2ccccc2)ccc1=O
Response: 0

----------
- method: compound fluorescence in GFP channel, mTEFS cells – imaging, mTEFS fibroblasts, cherry-pick, artefact control for X-chromosome reactivation project, dose response (AID 743396);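 as to % fluorescent cells increase: raw share of Hoechst-counted cells scored GFP positive without control normalization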
- conditions: mTEFS fibroblasts autofluorescence, GFP-channel imaging, 3 days; at 19.5 µM (top of the series); cells pretreated with 5-aza-dC
met means recorded % fluorescent cells increase is 0.03% or above; not met means it is below 0.03%.

A selection of reference data follows.
> print(dat)
                           substance.smiles      cat
1  CCc1ccc(CN(C)C(=O)c2cc(S(=O)(=O)N3CCOCC3)ccc2N2CCCC2)cc1  not met
2  COc1ccc(-c2ccc(C(=O)NCc3cccs3)c3occc23)c(C)c1      met
3     CN(C)C(=O)CN1CCN(Cc2nc(CC3CC3)no2)CC1      met

Query: Entry CCN(CC)S(=O)(=O)c1ccc(Cl)c(NC(=O)COC(=O)c2c(C)noc2C)c1 : is its % fluorescent cells increase no less than 0.03%?
Response: not met

Query: Same again, this time with Cc1[nH]c2ccc(Br)cc2c(=O)c1CN1CCCCCC1
Response: not met

----------
Reported % fluorescent cells increase is given for each of the following compounds.
- method: compound fluorescence in GFP channel, mTEFS cells – imaging, mTEFS fibroblasts, cherry-pick, artefact control for X-chromosome reactivation project, dose response (AID 743396);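 as to % fluorescent cells increase: raw share of Hoechst-counted cells scored GFP positive without control normalization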
- conditions: mTEFS fibroblasts autofluorescence, GFP-channel imaging, 3 days; at 19.5 µM (top of the series); cells pretreated with 5-aza-dC
Quick note: give the figure in %, leave out the unit.

Query: Looking for the measured % fluorescent cells increase of Cn1cc(/C=C/c2cc[n+](C)cc2)c2cc(Cl)ccc21 , can you help?
Response: 6.85

Query: Same again, this time with O=C(COC(=O)c1ccc(NS(=O)(=O)c2cccs2)cc1O)NC1CCCCC1
Response: 0.547

Query: Same again, this time with CC(C)c1ccc(CN2CCN(C(=O)CSc3nnnn3C3CC3)CC2)cc1
Response: 0.042

----------
Reported % fluorescent cells increase is given for each of the following compounds.
- method: compound fluorescence in GFP channel, mTEFS cells – imaging, mTEFS fibroblasts, cherry-pick, artefact control for X-chromosome reactivation project, dose response (AID 743396);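 as to % fluorescent cells increase: raw share of Hoechst-counted cells scored GFP positive without control normalization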
- conditions: mTEFS fibroblasts autofluorescence, GFP-channel imaging, 3 days; at 19.5 µM (top of the series); cells pretreated with 5-aza-dC
Quick note: give the figure in %, leave out the unit.

For orientation, consider the following solved cases.
> print(dat)
                                   compound  value.unit  value.reported
1        Cn1c(=N)n(CC(=O)c2ccccc2)c2ccccc21           %               0
2  CN(C1CCCCC1)S(=O)(=O)c1ccc(C(=O)N2CCN(c3nc4ccccc4s3)CC2)cc1           %          -0.007
3  CCCNC(=O)N1CC2(CN(S(C)(=O)=O)C2)c2c(n(C)c3cc(OC)ccc23)[C@H]1CO           %           0.032
4  COC(C(=O)NCc1ccc(C)cc1)c1ccccc1 (stereo unspecified)           %               0
5             S=C(NCc1ccco1)Nc1cccc(Cl)c1Cl           %           0.083
6  Cc1ccc(S(=O)(=O)Nc2ccc3c(c2)C(=O)N([C@@H](C)CO)C[C@@H](C)[C@@H](CN(C)Cc2ccc(C(=O)Nc4ccccc4N)cc2)O3)cc1           %               0

Query: Looking for the measured % fluorescent cells increase of C[C@H]1CCCCO[C@@H](CN(C)C(=O)Nc2ccc(C(F)(F)F)cc2)[C@@H](C)CN([C@@H](C)CO)C(=O)c2cc(NC(=O)CCC(F)(F)F)ccc2O1 , can you help?
Response: -0.166

Query: Same again, this time with COc1ccc(/C=c2/sc3nc(-c4ccccc4)c(-c4ccccc4)n3c2=O)cc1
Response: 0.085

Query: Same again, this time with COc1ccc(CNC(=O)c2ccc(-c3cnn(C)c3)c3ccoc23)cc1OC
Response: 1.28

Query: Same again, this time with Cc1ccccc1NC(=O)c1c(C)[nH]c(=S)c(C#N)c1-c1ccc(Cl)cc1
Response: 0.031

Query: Same again, this time with CN(Cc1nc(CCc2ccccc2)no1)Cc1cccs1
Response: 0.295

----------
Reported % fluorescent cells increase is given for each of the following compounds.
- method: compound fluorescence in GFP channel, mTEFS cells – imaging, mTEFS fibroblasts, cherry-pick, artefact control for X-chromosome reactivation project, dose response (AID 743396);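 as to % fluorescent cells increase: raw share of Hoechst-counted cells scored GFP positive without control normalization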
- conditions: mTEFS fibroblasts autofluorescence, GFP-channel imaging, 3 days; at 19.5 µM (top of the series); cells pretreated with 5-aza-dC
Quick note: give the figure in %, leave out the unit.

For orientation, consider the following solved cases.
> print(dat)
                                   compound  value.reported
1       C[C@@H]1COc2cccc(NCCO)c2S(=O)(=O)N1               0
2  Cc1ccc(NC(=O)COc2ccc(-c3nnco3)cc2)cc1S(=O)(=O)N1CCOCC1            0.01
3  COc1ccccc1OCCOc1ccc(/C=C2\C(=N)N3N=C(S(C)(=O)=O)SC3=NC2=O)cc1               0
4  CCOCCCNC(=O)/C(C#N)=C/c1ccc([N+](=O)[O-])o1             9.9
5     CSc1ccc(CN2C(=O)NC3(CCCCCCC3)C2=O)cc1          -0.004

Query: Looking for the measured % fluorescent cells increase of COc1ccc(OCCN2CCC(C(=O)NC(c3ccc(C)cc3)c3ccccn3)CC2)cc1 (stereo not drawn) , can you help?
Response: 0.021
